System: SW-620 colon
Test: NCI tumour cell line growth inhibition, 48 h
Each item that follows carries a reported TGI.

>>> result("COC1=CC(=O)c2c(O)c3c(c(O)c2C1=O)CC(C)(O)OC3 (stereo not given)")
"12.7 µM"
>>> result("O=c1[nH]c(=O)n(COCCO)cc1-c1ccccc1")
"> 100 µM"
>>> result("COc1ccc(OC)c(-c2cc(-c3ccc(Cl)cc3)nn2-c2ccc(S(N)(=O)=O)cc2)c1")
"> 100 µM"
>>> result("O=C(Nc1ccc(Cl)cc1Cl)c1c/c(=N\\O)c2ccc(O)cc2o1")
"> 100 µM"

Q: Specify TGI for Cc1cc(C)cc(NC(=O)CCC(=O)C2CCC/C2=N\NC(=O)C(=O)NN)c1 (stereo not given) , system SW-620 colon.
Result: > 100 µM

Q: Specify TGI for COc1cc(CNc2nc3cc(C(F)(F)F)ccc3nc2C(=O)O)cc(OC)c1OC , system SW-620 colon.
Result: > 100 µM

Q: Specify TGI for N#CCCN(CCN(CCN(C(=O)Nc1ccccc1)c1ccccc1)C(=O)Nc1ccccc1)C(=O)Nc1ccccc1 , system SW-620 colon.
Result: > 100 µM

Q: Specify TGI for OCCOCn1nc(-c2ccccc2)nc1-c1cnccn1 , system SW-620 colon.
Result: > 100 µM

---

System: OVCAR-5 ovarian
Experiment: NCI tumour cell line growth inhibition, 48 h
measurementLabel: TGI

>>> result("COc1cc(C2C3=C(COC3=O)N(CCO)c3cc4c(cc32)OCCO4)cc(OC)c1O (stereo not given)")
"> 50 µM"
>>> result("N#CCCN(CCN(CCN(C(=O)Nc1ccccc1)c1ccccc1)C(=O)Nc1ccccc1)C(=O)Nc1ccccc1")
"> 100 µM"
>>> result("O=C1/C(=C/c2ccc(F)cc2)CN(Cc2cn(CCNc3ccnc4cc(Cl)ccc34)nn2)C/C1=C\\c1ccc(F)cc1")
"3.71 µM"
>>> result("CC1CCC(O)/C=C/C(=O)OC(C)C(O)/C=C/C(=O)O1 (stereo not given)")
"> 100 µM"
>>> result("CCOC(=O)C(NC(=O)Nc1ccccc1)(Nc1cccc(Cl)c1)C(F)(F)F (stereo not given)")
"> 100 µM"

Q: Dear colleague, please send me the reported TGI for Nc1ncnc2c1ncn2C1OC(CO)C(O)C1O (stereo not given) when you can.
Result: > 450 µM

---

Each item that follows carries a reported TGI.
Test system: SR leukemia
Assay: NCI tumour cell line growth inhibition, 48 h

Record excerpt, results attached:
>>> result("COC(=O)C1=C(O)C(C(=O)OC)[C@@]2(O)[C@@H](C(=O)OC)C(c3ccc(OC(=O)C(Cc4ccccc4)NC(C)=O)cc3)C[C@@H]1[C@@H]2C(=O)OC (some centres undefined)")
"> 100 µM"
>>> result("O=C(O)c1cc(/C=C/c2ccc(O)c(O)c2)ccc1O")
"> 100 µM"
>>> result("CCCc1c(OC)c(O)c2c(=O)cc(OC)c3c4c(OC)cc(=O)c5c(O)c(OC)c(CCC)c(c1c23)c54")
"> 100 µM"
>>> result("CN(C)c1ccc(C(=C2C=CC(=[N+](C)C)C=C2)c2c(O)c(S(=O)(=O)[O-])cc3cc(S(=O)(=O)O)ccc23)cc1")
"> 100 µM"
>>> result("O=C1N2CCN=C2c2ccccc2C1(O)c1ccccc1 (centres undefined)")
"> 100 µM"
>>> result("C=C1CN(C(=O)c2cc3cc(OC)c(OC)c(OC)c3[nH]2)c2cc([N+](=O)[O-])ccc21")
"> 100 µM"
>>> result("CC(=O)Nc1ccc(S(=O)(=O)/N=c2/sc(S(N)(=O)=O)nn2C)cc1")
"> 100 µM"
>>> result("Nc1c2c(nc3ccccc13)-c1ccccc1CCC2")
"11 µM"

Here's the next entry for you.
Q: Dear colleague, please send me the reported TGI for C=CC[n+]1c(/C=C2\Sc3ccccc3N2C)sc(-c2ccccc2)c1-c1ccccc1 when you can.
Result: 1.87 µM

---

Test system: HCT-15 colon
Test: NCI tumour cell line growth inhibition, 48 h; in the data active = GI50 below about 0.43 µM; inactive = the rest
Classes to choose from: 1.0 = active, 0.0 = inactive

Q: // outcome(item) with item = CCCCC#Cc1c(I)n(C2OC(CO[Si](C)(C)C(C)(C)C)C3OC(C)(C)OC32)c(=O)[nH]c1=O (centres undefined)
Result: 0.0

Q: // outcome(item) with item = COc1ccc(-n2cc(-c3ccc(Cl)cc3)[nH]c2=S)cc1Cl
Result: 0.0

Q: // outcome(item) with item = CC([C@H]1CCC2C3CCC4C(=O)C(NC=O)=CC[C@]4(C)C3CC[C@@]21C)N(C)C (some centres undefined)
Result: 0.0

---

System: HCT-15 colon
Experiment: NCI tumour cell line growth inhibition, 48 h
Each item that follows carries a reported TGI.
Reply numerically in µM, unit not repeated.

>>> readoutnumber("COc1cc(C(C)(C)C)c(OC(=O)/C=C/C(=O)O/C=C/[N+](=O)[O-])c(C(C)(C)C)c1")
48.4
>>> readoutnumber("N#CC1=C(N)Oc2c(sc3c(F)cccc23)C1c1ccc(Cl)cc1 (centres undefined)")
13.1

Q: Dear colleague, please send me the reported TGI for COc1ccc(C2CC(c3cccc(Nc4ccnc5cc(Cl)ccc45)c3)=NN2c2ccccc2)cc1 (centres undefined) when you can.
Result: 14.7

---

Each item that follows carries a reported TGI.
System: SF-295 CNS
Assay: NCI tumour cell line growth inhibition, 48 h

Record excerpt, results attached:
>>> result("Nc1nc(-c2ccccc2)cc(-c2ccc(F)cc2)c1-c1ccc(Cl)cc1")
"> 100 µM"
>>> result("COc1ccc(/C=N\\N2C(=O)Cc3ccccc32)cc1")
"> 100 µM"
>>> result("COc1cccc(-n2cnc3c(N/N=C/c4ccncc4)ncnc32)c1")
"> 25 µM"
>>> result("C(=C/c1ccc2nc(-c3ccc(/C=C/C=N/NC4=NCCCN4)cc3)cn2c1)/C=N/NC1=NCCCN1")
"> 100 µM"

Q: Dear colleague, please send me the reported TGI for COC(=O)CC[C@@H](NC(=O)C(C)NC(=O)COC1C(O)C(COC(=O)CCCCCCCCCCNC(=O)c2ccc([N+](=O)[O-])c3[nH]c4cc(Br)ccc4c(=O)c23)OC(OCc2ccccc2)C1NC(C)=O)C(N)=O (some centres not stated) when you can.
Result: > 100 µM

Q: Dear colleague, please send me the reported TGI for CCOC(=O)C(C(N)=O)c1nc2cc([N+](=O)[O-])ccc2nc1/C=C(\O)c1ccc(C)cc1 (configuration not stated) when you can.
Result: 43.6 µM

Q: Dear colleague, please send me the reported TGI for O=C1OS2(OC(=O)c3cccc4cccc2c34)c2ccccc21 (configuration not stated) when you can.
Result: > 100 µM

---

System: A549 NSCLC
Assay: NCI tumour cell line growth inhibition, 48 h
measurementLabel: TGI (µM)
Reply numerically in µM, unit not repeated.

Q: Dear colleague, please send me the reported TGI for CC(=O)O/N=C1\C=Cc2c(no[n+]2[O-])C1=O when you can.
Result: 31.1

Q: Dear colleague, please send me the reported TGI for C=CCCCN1C(=O)C2C3c4ccccc4C(C=O)(c4ccccc43)C2C1=O (stereo not given) when you can.
Result: 35.9

Q: Dear colleague, please send me the reported TGI for COc1cc(OC)cc(-c2n[nH]nc2-c2ccc3c(c2)OCO3)c1 when you can.
Result: 50.9

Q: Dear colleague, please send me the reported TGI for NC(=O)NC1=NCCC(=O)N1CCc1c[nH]c2ccccc12 when you can.
Result: 54.8

---

Tested on: HOP-18 NSCLC
Assay: NCI tumour cell line growth inhibition, 48 h
Each item that follows carries a reported TGI.

Record excerpt, results attached:
>>> result("CCCCCCCCOCC(O)COC (stereo unspecified)")
"> 100 µM"
>>> result("COc1cc2c3c(c1OC)C1(C=CC(=O)C=C1)CC3N(C(=O)OC(C)(C)C(Cl)(Cl)Cl)CC2 (stereo unspecified)")
"50.4 µM"

Q: Specify TGI for Cn1c(=O)c(C2c3ccccc3Oc3c2c(=O)n(C)c2ccccc32)c(O)c2ccccc21 (stereo unspecified) , system HOP-18 NSCLC.
Result: > 100 µM

Q: Specify TGI for COc1ccc2c(c1)C(CCN)C(=O)N2 (stereo unspecified) , system HOP-18 NSCLC.
Result: > 100 µM

Q: Specify TGI for NNC(=S)N/N=C(\c1nc2ccc(Cl)cc2[nH]c1=O)C(O)c1ccc(Cl)cc1Cl (stereo unspecified) , system HOP-18 NSCLC.
Result: > 100 µM

Q: Specify TGI for COc1ccc(/C=N\N2C(=O)Cc3ccccc32)cc1 , system HOP-18 NSCLC.
Result: > 100 µM

---

Test system: HCC-2998 colon
Experiment: NCI tumour cell line growth inhibition, 48 h
Where a SMILES comes first, the peptide text is derived from it. The star is where a group is joined. Boc = CC(C)(C)OC(=O)*; OBn = c1ccc(CO*)cc1; Bn = c1ccc(C*)cc1
measurementLabel: TGI

>>> result("COc1cccc(-n2cnc3c(N/N=C/c4ccncc4)ncnc32)c1")
"> 25 µM"

Q: Dear colleague, please send me the reported TGI for Oc1cccc(-c2cc(=S)ss2)c1 when you can.
Result: 32.4 µM

Q: Dear colleague, please send me the reported TGI for OCCOCn1nc(-c2ccccc2)nc1-c1cnccn1 when you can.
Result: > 100 µM

Q: Dear colleague, please send me the reported TGI for COc1ccc2c(c1)Cc1cc(N=[N+]([O-])c3ccc4c(c3)Cc3cc(OC)ccc3-4)ccc1-2 when you can.
Result: 27.3 µM

Q: Dear colleague, please send me the reported TGI for COc1ccc(OC)c(-c2cc(-c3ccc(Cl)cc3)nn2-c2ccc(S(N)(=O)=O)cc2)c1 when you can.
Result: 21.6 µM

Q: Dear colleague, please send me the reported TGI for CC(CCC(=O)O)(c1cc(Br)c(O)c(Br)c1)c1cc(Br)c(O)c(Br)c1 when you can.
Result: 86.3 µM

Q: Dear colleague, please send me the reported TGI for c1ccc2c(c1)N=c1ccccc1=P21c2ccccc2Nc2ccccc21 when you can.
Result: 4.06 µM

Q: Dear colleague, please send me the reported TGI for CC(C)(C)NC(=O)C12C3C4C1C1C2C3C41I (stereo not given) when you can.
Result: > 100 µM

Q: Dear colleague, please send me the reported TGI for CC([C@H]1CCC2C3CCC4C(=O)C(NC=O)=CC[C@]4(C)C3CC[C@@]21C)N(C)C (stereo not given in full) when you can.
Result: 14.7 µM

Q: Dear colleague, please send me the reported TGI for COC(=O)c1nc(N)[nH]c(=O)c1-c1ccc(Cl)cc1 when you can.
Result: > 100 µM

Q: Dear colleague, please send me the reported TGI for O=C(NCCc1ccc(F)cc1)c1cc(/C=C/c2cc(O)ccc2O)ccc1O when you can.
Result: 26 µM

Q: Dear colleague, please send me the reported TGI for CC(C)CC(NC(=O)C(CCC(=O)OCc1ccccc1)NC(=O)OC(C)(C)C)C(=O)NC(COCc1ccccc1)C(=O)NC(Cc1ccccc1)C(=O)O (stereo not given) (Boc-E(OBn)LS(Bn)F-OH; configuration not given here) when you can.
Result: > 100 µM

Q: Dear colleague, please send me the reported TGI for O=C(O)C(=O)/C=C\c1ccc(Cl)cc1 when you can.
Result: > 100 µM

Q: Dear colleague, please send me the reported TGI for Clc1ccc2nc3c(c(-c4ccccc4)nn3-c3ccccc3)c(-c3ccccc3)c2c1 when you can.
Result: > 100 µM

Q: Dear colleague, please send me the reported TGI for CCCCC(=O)Nc1ccc2cc(C(=O)OC)c(=O)[nH]c2n1 when you can.
Result: > 100 µM

Q: Dear colleague, please send me the reported TGI for CN(CCN(C)Cc1ccc(Cl)c(Cl)c1)CCN1CCCC1 when you can.
Result: 32.2 µM
